protocol notes: Brain permeability test, single intraperitoneal dose in C57 male mice
Type: in vivo
test settings: male, C57, mouse, intraperitoneal 5 mg/kg, 2.0 h, plasma, read-out: 2.0 h plasma concentration
Entries whose concentration at 2 h is below 300 ng/mL take true (1); entries at or above 300 ng/mL take false (0).

Previously resolved entries follow.
                                   compound  discrete_label
0  COc1cccc2c3c([nH]c12)CN(CC[C@H]1CC[C@H](NC(=O)N(C)C)CC1)CC3 [I-B7]        true (1)
1  COc1cccc2c1cc1n2CCN(CCCCOc2ccc3ccc(=O)[nH]c3c2)C1 [I-C1]       false (0)
2  COc1cccc2c3c(oc12)CN(CCCCOc1ccc2ccc(=O)[nH]c2c1)CC3 [I-A1]       false (0)
3  COc1cccc2c3c(oc12)CN(CC[C@H]1CC[C@H](NC(=O)N(C)C)CC1)CC3 [I-A12]        true (1)
4  COc1cccc2c1cc1n2CCN(CCCCOc2ccc3c(c2)NC(=O)CC3)C1 [I-C2]       false (0)

q: Identify whether the compound COc1cccc2c1cc1n2CCN(CC[C@H]2CC[C@H](NC(=O)N(C)C)CC2)C1 [I-C7] records concentration at 2 h below 300 ng/mL.
a: true (1)

====

Would you kindly list Emax for each of these molecules?
subject of test: dopamine D2 receptors (Homo sapiens (Human), UniProt P14416)
Sequence (P14416 whole entry): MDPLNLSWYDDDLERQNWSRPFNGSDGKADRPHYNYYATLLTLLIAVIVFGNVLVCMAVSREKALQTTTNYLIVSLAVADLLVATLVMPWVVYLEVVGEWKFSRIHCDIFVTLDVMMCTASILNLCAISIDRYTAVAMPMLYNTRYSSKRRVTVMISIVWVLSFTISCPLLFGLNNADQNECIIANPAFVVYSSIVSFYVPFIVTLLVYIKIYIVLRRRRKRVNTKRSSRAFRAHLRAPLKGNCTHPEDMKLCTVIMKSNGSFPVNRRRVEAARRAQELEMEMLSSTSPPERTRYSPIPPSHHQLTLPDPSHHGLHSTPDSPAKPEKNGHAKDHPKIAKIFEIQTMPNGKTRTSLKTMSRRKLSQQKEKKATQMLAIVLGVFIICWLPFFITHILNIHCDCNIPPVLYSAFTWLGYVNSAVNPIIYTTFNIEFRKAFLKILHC
protocol notes: Dopamine D2 receptor β-arrestin2 BRET (recruitment)
Assay type: cell-based
test settings: relative to endogenous ligand dopamine, read-out: β-arrestin2 BRET Emax % ± SEM
The number alone won't do; follow it with the unit.

// known answers, use as guide
>>> print(df.to_string())
                              smiles_string  reported
0  COc1cccc2c3c(oc12)CN(CC[C@H]1CC[C@H](NS(C)(=O)=O)CC1)CC3       81%
1  COc1cccc2c3c([nH]c12)CN(CCCOc1ccc2ccc(=O)[nH]c2c1)CC3       90%
2  CCOc1cccc2c1cc1n2CCN(CC[C@H]2CC[C@H](NC(=O)N(C)C)CC2)C1       45%

Provide each entry's Emax from the list below.
1. COc1cccc2c3c([nH]c12)CN(CC1(O)CCCCC1)CC3
2. COc1cccc2c1cc1n2CCN(CCCCOc2ccc3c(c2)NC(=O)CC3)C1
3. CCOc1cccc2c3c(oc12)CN(CCc1ccc2ccc(=O)[nH]c2c1)CC3

a:
1. 51%
2. 115%
3. 101%

Provide each entry's Emax from the list below.
1. COc1cccc2c1nc1n2CCN(CC2(O)CCCCC2)C1
2. COc1cccc2c1nc1n2CCN(C/C=C/COc2ccc3c(c2)NC(=O)CC3)C1
3. COc1cccc2c1cc1n2CCN(CCCCOc2ccc3ccc(=O)[nH]c3c2)C1
4. CCOc1cccc2c1cc1n2CCN(CCCCOc2ccc3ccc(=O)[nH]c3c2)C1

a:
["41%", "66%", "117%", "49%"]

====

protocol notes: Brain permeability test, single intraperitoneal dose in C57 male mice
Type: in vivo
test settings: male, C57, mouse, intraperitoneal 5 mg/kg, 0.5 h, brain, read-out: 0.5 h brain concentration
Protocol: Using the same method as that in the pharmacokinetic experiment, 0.030 mL of blood was collected from the orbit of each animal at 0.5 hours, 2.0 hours, and 4.0 hours, and anticoagulated with EDTA-K2. Blood samples were placed on ice after collection, and plasma was separated by centrifugation within 30 minutes (centrifugation conditions: 5000 rpm, 10 minutes, 4° C.). […] Drug concentrations in plasma and brain tissues were analyzed by LC/MS/MS for comparison.
Returns true if the recorded concentration at 0.5 h is greater than or equal to 1000 ng/mL, and false otherwise.

>>> print(df.to_string())
                              smiles_string  discrete_label
0  COc1cccc2c1cc1n2CCN(CCCCOc2ccc3ccc(=O)[nH]c3c2)C1            true
1  COc1cccc2c3c(oc12)CN(CCCCOc1ccc2ccc(=O)[nH]c2c1)CC3            true
2  COc1cccc2c3c([nH]c12)CN(CC[C@H]1CC[C@H](NC(=O)N(C)C)CC1)CC3           false
3  COc1cccc2c1cc1n2CCN(CCCCOc2ccc3c(c2)NC(=O)CC3)C1            true

# ---- query compound ----
q: Record COc1cccc2c3c(oc12)CN(CC[C@H]1CC[C@H](NC(=O)N(C)C)CC1)CC3 ; criterion: concentration at 0.5 h no lower than 1000 ng/mL. Met?
a: true

====

subject of test: 5-hydroxytryptamine 1A (5-HT1A) receptors (Homo sapiens (Human), UniProt P08908)
Sequence (P08908 whole entry): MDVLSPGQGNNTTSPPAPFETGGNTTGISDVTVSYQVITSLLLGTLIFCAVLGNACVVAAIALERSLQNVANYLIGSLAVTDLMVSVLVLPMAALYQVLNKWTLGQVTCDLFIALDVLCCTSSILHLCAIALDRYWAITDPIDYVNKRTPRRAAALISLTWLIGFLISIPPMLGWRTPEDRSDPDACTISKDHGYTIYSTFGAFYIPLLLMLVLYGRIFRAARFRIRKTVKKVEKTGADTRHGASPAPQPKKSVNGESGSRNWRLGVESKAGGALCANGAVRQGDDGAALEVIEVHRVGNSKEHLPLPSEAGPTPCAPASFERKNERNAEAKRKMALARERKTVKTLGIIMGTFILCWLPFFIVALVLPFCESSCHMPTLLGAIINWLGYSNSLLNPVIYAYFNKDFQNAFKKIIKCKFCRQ
protocol notes: 5-HT1A receptor Gαi1 BRET (G protein trimer dissociation)
Type: cell-based
test settings: relative to endogenous ligand 5-hydroxytryptamine
Would you kindly list Emax for each of these molecules?
Give bare numbers, in %.

In [3]: df
Out[3]:
                              smiles_string                           subject_of_test  assay_metric  reported
0  CCOc1cccc2c3c(oc12)CN(CCCCn1ncc(=O)n(C)c1=O)CC3  5-hydroxytryptamine 1A (5-HT1A) receptors (Homo sapiens (Human), UniProt P08908)          Emax      84.3
1  CCOc1cccc2c3c(oc12)CN(CCCn1ncc(=O)n(C)c1=O)CC3  5-hydroxytryptamine 1A (5-HT1A) receptors (Homo sapiens (Human), UniProt P08908)          Emax      75.9
2  CCOc1cccc2c3c(oc12)CN(CCCCOc1ccc2ccc(=O)[nH]c2n1)CC3  5-hydroxytryptamine 1A (5-HT1A) receptors (Homo sapiens (Human), UniProt P08908)          Emax      90.3
3  CCOc1cccc2c3c(oc12)CN(CCN1CCCc2c(ccn2C)C1=O)CC3  5-hydroxytryptamine 1A (5-HT1A) receptors (Homo sapiens (Human), UniProt P08908)          Emax      98.8
4  CCOc1cccc2c3c([nH]c12)CN(CC[C@H]1CC[C@H](NC(=O)N(C)C)CC1)CC3  5-hydroxytryptamine 1A (5-HT1A) receptors (Homo sapiens (Human), UniProt P08908)          Emax      37.9

Provide each entry's Emax from the list below.
1. CCOc1cccc2c3c(oc12)CN(CCN1CCc2nn(C)c(C)c2C1=O)CC3
2. CCOc1cccc2c3c(oc12)CN(CCCOc1ccc2c(c1)OCO2)CC3
3. CCOc1cccc2c3c(oc12)CN(CCN1CCCc2ccccc2C1=O)CC3
4. CCOc1cccc2c3c(oc12)CN(CCCCOc1ccc2ccc(=O)[nH]c2c1)CC3

a:
[82.2, 104, 101, 85.9]

Provide each entry's Emax from the list below.
1. COc1cccc2c1cc1n2CCN(CCNC(=O)C2CCOCC2)C1
2. COc1cccc2c3c(oc12)CN(CCNC(=O)C1CCC(F)(F)CC1)CC3
3. CCOc1cccc2c3c(oc12)CN(CCN1CCCc2c(cnn2C)C1=O)CC3
4. CC(C)Oc1cccc2c3c(oc12)CN(CCCCOc1ccc2ccc(=O)[nH]c2c1)CC3
5. CCOc1cccc2c3c(oc12)CN(CCc1ccc2ccc(=O)[nH]c2c1)CC3

a:
[81, 123, 101, 81.9, 64.1]

Provide each entry's Emax from the list below.
1. CCOc1cccc2c3c(oc12)CN(CCCCOc1ccc2c(c1)NC(=O)CO2)CC3
2. CCOc1cccc2c3c(oc12)CN(CCCCN1C(=O)CC2(CCCC2)CC1=O)CC3

a:
[74.5, 98.5]

====

protocol notes: Pharmacokinetics in SD rats, single dose intragastric and intravenous
Format: in vivo
test settings: male, rat, plasma, intravenous injection, dose 10 mg/kg, read-out: Area under the drug-time curve AUC0-t
assay metric: AUC(0-t) (µg·h/mL)
Give bare numbers, in µg·h/mL.

Summary for this molecule, COc1cccc2c1cc1n2CCN(CC[C@H]2CC[C@H](NC(=O)N(C)C)CC2)C1 [I-C7] : AUC(0-t) is 2.52

====

protocol notes: Pharmacokinetics in SD rats, single dose intragastric and intravenous
Type: in vivo
test settings: male, rat, plasma, oral administration, 10 mg/kg, read-out: Mean residence time MRT
assay metric: MRT (h)
Answers are plain numbers, in h.

// known answers, use as guide
>>> df
                              smiles_string  unit_label  reported
0  COc1cccc2c3c(oc12)CN(CC[C@H]1CC[C@H](NC(=O)N(C)C)CC1)CC3           h      4.42
1  COc1cccc2c1cc1n2CCN(CCCCOc2ccc3ccc(=O)[nH]c3c2)C1           h        10
2  COc1cccc2c3c([nH]c12)CN(CC[C@H]1CC[C@H](NC(=O)N(C)C)CC1)CC3           h      8.08

Provide each entry's MRT from the list below.
1. COc1cccc2c1cc1n2CCN(CC[C@H]2CC[C@H](NC(=O)N(C)C)CC2)C1
2. COc1cccc2c1cc1n2CCN(CCCCOc2ccc3c(c2)NC(=O)CC3)C1

a:
[11.5, 5.46]

src = patent US20250109139A1
